Target: CYP1A2 (Homo sapiens)
Construct: from tissue; host or cells: human liver microsomes
Sequence (P05177 1-516): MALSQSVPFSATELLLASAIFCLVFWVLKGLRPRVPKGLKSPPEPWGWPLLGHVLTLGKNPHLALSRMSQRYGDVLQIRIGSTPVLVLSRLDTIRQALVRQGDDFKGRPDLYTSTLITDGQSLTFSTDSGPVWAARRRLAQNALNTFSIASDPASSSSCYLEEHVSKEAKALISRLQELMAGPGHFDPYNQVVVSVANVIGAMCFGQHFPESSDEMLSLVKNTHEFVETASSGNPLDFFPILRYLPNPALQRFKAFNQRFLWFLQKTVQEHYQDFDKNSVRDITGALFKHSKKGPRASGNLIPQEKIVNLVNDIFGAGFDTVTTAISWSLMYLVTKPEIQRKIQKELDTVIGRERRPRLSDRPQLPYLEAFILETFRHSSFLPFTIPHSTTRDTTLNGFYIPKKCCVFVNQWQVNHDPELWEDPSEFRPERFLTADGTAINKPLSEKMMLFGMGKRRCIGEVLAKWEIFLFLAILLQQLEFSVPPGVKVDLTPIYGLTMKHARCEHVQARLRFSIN
Assay: Cytochrome P450 inhibition, CYP1A2
Format: in vitro ADME
Settings: probe Phenacetin (40 μM); 10 μM compound, human liver microsomes, substrate Phenacetin; read-out: Inhibition percentage CYP1A2 (Phenacetin)
recorded_metric: inhibition at 20 min, 10 µM (%)

{"compound": "CC(C)(O)c1nnc(-c2cnn3ccc(N4CCC[C@@H]4c4cc(F)ccc4F)nc23)[nH]1", "reading_unit": "%", "measurement": 8.54}

A = Cc1nnc(-c2cnn3ccc(N4CCCC4c4cc(F)ccc4F)nc23)[nH]1 (stereo not shown) [Comparative compound A, reference compound]
B = OC(c1nnc(-c2cnn3ccc(N4CCC[C@@H]4c4cc(F)ccc4F)nc23)[nH]1)C(F)(F)F (stereo partly shown)
C = C[C@H](O)c1nnc(-c2cnn3ccc(N4CCC[C@@H]4c4cc(F)ccc4F)nc23)[nH]1
Problem: Kindly order the items shown according to inhibition at 20 min, 10 µM, from the highest value down. // respond by listing labels in the order requested
Result: A, B, C

---

molecular target: CYP2C9 (Homo sapiens, UniProt P11712); construct: from tissue; host or cells: human liver microsomes; assay: Cytochrome P450 inhibition, CYP2C9; assay type: in vitro ADME; settings: probe Tolbutamide (200 μM); 10 μM compound, human liver microsomes, substrate Tolbutamide; read-out: Inhibition percentage CYP2C9 (Tolbutamide)
Sequence (P11712 whole entry): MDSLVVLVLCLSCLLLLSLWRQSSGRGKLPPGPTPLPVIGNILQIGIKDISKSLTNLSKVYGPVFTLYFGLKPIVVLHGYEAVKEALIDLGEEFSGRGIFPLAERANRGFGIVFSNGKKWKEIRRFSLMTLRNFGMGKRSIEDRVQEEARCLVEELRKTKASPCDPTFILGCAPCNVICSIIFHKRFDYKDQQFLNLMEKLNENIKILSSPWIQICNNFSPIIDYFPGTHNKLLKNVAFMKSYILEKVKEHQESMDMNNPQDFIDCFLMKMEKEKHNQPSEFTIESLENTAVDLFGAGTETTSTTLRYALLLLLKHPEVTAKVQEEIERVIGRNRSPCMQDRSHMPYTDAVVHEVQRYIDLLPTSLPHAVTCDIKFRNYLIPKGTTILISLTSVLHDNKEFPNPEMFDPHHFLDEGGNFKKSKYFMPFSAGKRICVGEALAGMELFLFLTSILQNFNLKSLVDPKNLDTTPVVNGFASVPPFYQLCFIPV
recorded_metric: inhibition at 20 min, 10 µM (%)

Below are worked cases with known answers.
{"compound": "OC(c1nnc(-c2cnn3ccc(N4CCC[C@@H]4c4cc(F)ccc4F)nc23)[nH]1)C(F)(F)F (stereo partly shown)", "reading_unit": "%", "inhibition at 20 min, 10 µM": 50.4}
{"compound": "CC(C)(O)c1nnc(-c2cnn3ccc(N4CCC[C@@H]4c4cc(F)ccc4F)nc23)[nH]1", "reading_unit": "%", "inhibition at 20 min, 10 µM": 22.7}

A = Cc1nnc(-c2cnn3ccc(N4CCCC4c4cc(F)ccc4F)nc23)[nH]1 (stereo not shown) [Comparative compound A, reference compound]
B = C[C@H](O)c1nnc(-c2cnn3ccc(N4CCC[C@@H]4c4cc(F)ccc4F)nc23)[nH]1
Problem: Of the two listed items, A and B , which carries the larger inhibition at 20 min, 10 µM figure? // respond with label for picked entry
Result: A
(A: 25.4%, B: 5.96%)

---

molecular target: NTRK1-G595R (Homo sapiens, UniProt P04629, G595R); assay: NTRK1-G595R cell proliferation assay (Table 13)
Sequence (P04629 33-796 G595R): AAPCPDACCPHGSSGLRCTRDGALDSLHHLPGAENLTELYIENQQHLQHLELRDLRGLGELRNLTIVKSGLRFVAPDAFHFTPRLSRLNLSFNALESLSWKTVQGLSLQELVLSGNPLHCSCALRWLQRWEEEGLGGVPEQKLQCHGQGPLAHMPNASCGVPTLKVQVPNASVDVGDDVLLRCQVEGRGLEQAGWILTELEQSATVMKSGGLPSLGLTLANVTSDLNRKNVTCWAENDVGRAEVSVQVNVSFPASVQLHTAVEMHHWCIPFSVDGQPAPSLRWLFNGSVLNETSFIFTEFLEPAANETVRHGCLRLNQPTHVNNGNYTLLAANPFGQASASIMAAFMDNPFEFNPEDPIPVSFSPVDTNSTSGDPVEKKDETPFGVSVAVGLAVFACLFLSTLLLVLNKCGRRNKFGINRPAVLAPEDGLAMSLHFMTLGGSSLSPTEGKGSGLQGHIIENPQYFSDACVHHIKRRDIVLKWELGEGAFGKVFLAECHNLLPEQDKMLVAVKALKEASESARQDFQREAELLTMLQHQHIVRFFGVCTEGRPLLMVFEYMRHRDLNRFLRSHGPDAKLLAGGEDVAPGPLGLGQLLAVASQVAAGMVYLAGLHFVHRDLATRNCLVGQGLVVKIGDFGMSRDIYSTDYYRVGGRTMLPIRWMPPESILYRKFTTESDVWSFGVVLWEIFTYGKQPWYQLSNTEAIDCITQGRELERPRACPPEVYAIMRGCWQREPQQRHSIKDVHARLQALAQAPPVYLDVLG
pIC50: −log10 of the molar value.
recorded_metric: pIC50

1 = Fc1ccc(F)c([C@H]2CCCN2c2ccn3ncc(-c4nc5cc(CN6CCOCC6)ccc5[nH]4)c3n2)c1
2 = CN(C)c1cc2[nH]c(-c3cnn4ccc(N5CCC[C@@H]5c5cc(F)ccc5F)nc34)nc2cc1C#N
3 = COc1cc2nc(-c3cnn4ccc(N5CCC[C@@H]5c5cc(F)ccc5F)nc34)[nH]c2cc1C#N
Problem: // smallest pIC50 at index 0, largest at the end // respond by listing labels in the order requested
Result: 2, 1, 3
(2: 6.65, 1: 6.93, 3: 7.33)

---

assay: Plasma protein binding (equilibrium dialysis), human; type: in vitro ADME; conditions: pH 7.4; human plasma, 1 μM, 6 hours dialysis
recorded_metric: recovery at 6 h, 1 μM (%)

{"compound": "NC1(c2nnc(-c3cnn4ccc(N5CCC[C@@H]5c5cc(F)ccc5F)nc34)[nH]2)CCC1", "recorded_metric": "recovery at 6 h, 1 μM", "measurement": 85.9}
{"compound": "C[C@@H](CO)c1nnc(-c2cnn3ccc(N4CCC[C@@H]4c4cc(F)ccc4F)nc23)[nH]1", "recorded_metric": "recovery at 6 h, 1 μM", "measurement": 97.4}
{"compound": "CC(C)(O)Cc1nnc(-c2cnn3ccc(N4CCC[C@@H]4c4cc(F)ccc4F)nc23)[nH]1", "recorded_metric": "recovery at 6 h, 1 μM", "measurement": 90.7}
{"compound": "OC1CC(c2nnc(-c3cnn4ccc(N5CCC[C@@H]5c5cc(F)ccc5F)nc34)[nH]2)C1 (some centres unmarked)", "recorded_metric": "recovery at 6 h, 1 μM", "measurement": 96.8}
{"compound": "CC(C)(O)c1nnc(-c2cnn3ccc(N4CCC[C@@H]4c4cc(F)ccc4F)nc23)[nH]1", "recorded_metric": "recovery at 6 h, 1 μM", "measurement": 96.3}
{"compound": "C[C@@H](O)c1nnc(-c2cnn3ccc(N4CCC[C@@H]4c4cc(F)ccc4F)nc23)[nH]1", "recorded_metric": "recovery at 6 h, 1 μM", "measurement": 91.7}
{"compound": "C[C@H](N)c1nnc(-c2cnn3ccc(N4CCC[C@@H]4c4cc(F)ccc4F)nc23)[nH]1", "recorded_metric": "recovery at 6 h, 1 μM", "measurement": 89.3}
{"compound": "Cc1nnc(-c2cnn3ccc(N4CCCC4c4cc(F)ccc4F)nc23)[nH]1 (centres unmarked) [Comparative compound A, reference compound]", "recorded_metric": "recovery at 6 h, 1 μM", "measurement": 93.8}

---

target: TrkA kinase (Homo sapiens); experiment: TrkA kinase assay (mobility shift assay); assay type: biochemical; conditions: class symbols; read-out: Trk A Kinase IC50
Sequence (P04629 33-796): as the sequence (P04629 33-796 G595R) above, with R563G counted along it
pIC50: −log10 of the molar value.
In this section, each of the compounds is paired with its reported pIC50.

Problem: // pIC50 lookup, key: `Fc1ccc(F)c([C@H]2CCCN2c2ccn3ncc(-c4nnc(-c5ccc6c(c5)OCC6)[nH]4)c3n2)c1`
Result: ≥ 8.00

Problem: What about `COC(=O)c1ccc(F)c2nc(-c3cnn4ccc(N5CCC[C@@H]5c5cc(F)ccc5F)nc34)oc12` ?
Result: ≥ 8.00

Problem: What about `COC(=O)Oc1cc2nc(-c3cnn4ccc(N5CCC[C@@H]5c5cc(F)ccc5F)nc34)[nH]c2cc1OC(=O)OC` ?
Result: < 7.30

Problem: What about `OC(c1nnc(-c2cnn3ccc(N4CCC[C@@H]4c4cc(F)ccc4F)nc23)[nH]1)(C(F)(F)F)C(F)(F)F` ?
Result: < 7.30

Problem: What about C#CC(O)c1nnc(-c2cnn3ccc(N4CCC[C@@H]4c4cc(F)ccc4F)nc23)[nH]1 (some centres unmarked) ?
Result: ≥ 8.00

Problem: What about `N#Cc1cc2nc(-c3cnn4ccc(N5CCC[C@@H]5c5cc(F)ccc5F)nc34)[nH]c2cc1OCCO` ?
Result: ≥ 8.00

Problem: What about `Fc1ccc(F)c([C@H]2CCCN2c2ccn3ncc(-c4nc5cc(OC(F)F)c(OC(F)F)cc5[nH]4)c3n2)c1` ?
Result: ≥ 8.00

---

Molecular target: TrkA kinase (Homo sapiens)
Assay: TrkA kinase assay (mobility shift assay)
Assay type: biochemical
Details: numeric values; read-out: Trk A Kinase IC50
Protocol: Example 201 TrkA Kinase Assay Mobility shift assay was used to determine the inhibitory activity of compounds against TrkA kinase. Assay procedures are as follows: 1× Kinase base buffer (50 mM HEPES, pH 7.5; 0.0015% Brij-35) Stop buffer (100 mM HEPES, pH 7.5; 0.015% Brij-35; 0.2% Coating Reagent #3; 50 mM EDTA) 1) Dilute the compound to 50× of the final desired highest inhibitor concentration in reaction by 100% DMSO. Transfer 100 μl of this compound dilution to a well in a 96-well plate. […]
recorded_metric: IC50 (nM)

{"molecule": "Fc1ccc(F)c([C@H]2CCCN2c2ccn3ncc(-c4nc5cc(Cl)c(OC(F)(F)F)cc5[nH]4)c3n2)c1", "measurement": 20.7}

a = OCC(F)c1nnc(-c2cnn3ccc(N4CCC[C@@H]4c4cc(F)ccc4F)nc23)[nH]1 (stereo partly drawn)
b = N#Cc1cc2nc(-c3cnn4ccc(N5CCC[C@@H]5c5cc(F)ccc5F)nc34)[nH]c2cc1N1CCC[C@H]1C(=O)O
c = Fc1ccc(F)c([C@H]2CCCN2c2ccn3ncc(-c4nc5cc(Cl)c(Cl)cc5[nH]4)c3n2)c1
d = N#Cc1cc2nc(-c3cnn4ccc(N5CCC[C@@H]5c5cc(F)ccc5F)nc34)[nH]c2cc1OC(F)F
Problem: Kindly order the items shown according to IC50, from the highest value down. // respond by listing labels in the order requested
Result: c, d, a, b

1 = C[C@@H](CO)c1nnc(-c2cnn3ccc(N4CCC[C@@H]4c4cc(F)ccc4F)nc23)[nH]1
2 = Fc1ccc(F)c([C@H]2CCCN2c2ccn3ncc(-c4nc5cccc(Cl)c5[nH]4)c3n2)c1
3 = COc1ccc2nc(-c3cnn4ccc(N5CCC[C@@H]5c5cc(F)ccc5F)nc34)[nH]c2n1
Problem: Rank the items in ascending order with respect to IC50. // respond by listing labels in the order requested
Result: 3, 1, 2
